biological target: sucrase (Rattus norvegicus, UniProt P23739); test: Sucrase, homogenates of freshly isolated rat intestine; conditions: read-out: IC50 sucrase; rat intestine homogenate
Sequence (P23739 1014-1841 limits assumed): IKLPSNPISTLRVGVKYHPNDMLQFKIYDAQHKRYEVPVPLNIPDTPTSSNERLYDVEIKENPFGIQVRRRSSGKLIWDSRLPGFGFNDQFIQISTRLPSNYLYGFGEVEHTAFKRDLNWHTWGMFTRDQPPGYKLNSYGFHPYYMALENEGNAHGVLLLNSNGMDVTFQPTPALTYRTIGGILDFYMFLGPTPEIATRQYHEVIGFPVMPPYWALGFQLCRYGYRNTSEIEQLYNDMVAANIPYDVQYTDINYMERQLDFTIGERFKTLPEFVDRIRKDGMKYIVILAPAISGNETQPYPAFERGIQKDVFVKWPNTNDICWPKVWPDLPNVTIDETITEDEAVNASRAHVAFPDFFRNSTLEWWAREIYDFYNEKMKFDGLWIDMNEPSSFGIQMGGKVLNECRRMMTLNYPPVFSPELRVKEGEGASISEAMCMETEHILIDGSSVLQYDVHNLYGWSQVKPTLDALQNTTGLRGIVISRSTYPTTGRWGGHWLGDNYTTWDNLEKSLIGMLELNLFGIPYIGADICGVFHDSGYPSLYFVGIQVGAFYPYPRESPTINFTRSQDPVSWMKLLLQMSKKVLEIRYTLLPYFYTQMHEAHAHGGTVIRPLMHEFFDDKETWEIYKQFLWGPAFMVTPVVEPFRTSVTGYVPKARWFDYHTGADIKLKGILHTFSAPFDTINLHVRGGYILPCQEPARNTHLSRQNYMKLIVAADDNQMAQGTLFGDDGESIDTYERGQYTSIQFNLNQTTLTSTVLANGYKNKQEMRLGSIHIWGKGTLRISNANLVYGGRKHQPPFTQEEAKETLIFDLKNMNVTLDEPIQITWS
Sequence (P23739 1-1013 partner limits assumed): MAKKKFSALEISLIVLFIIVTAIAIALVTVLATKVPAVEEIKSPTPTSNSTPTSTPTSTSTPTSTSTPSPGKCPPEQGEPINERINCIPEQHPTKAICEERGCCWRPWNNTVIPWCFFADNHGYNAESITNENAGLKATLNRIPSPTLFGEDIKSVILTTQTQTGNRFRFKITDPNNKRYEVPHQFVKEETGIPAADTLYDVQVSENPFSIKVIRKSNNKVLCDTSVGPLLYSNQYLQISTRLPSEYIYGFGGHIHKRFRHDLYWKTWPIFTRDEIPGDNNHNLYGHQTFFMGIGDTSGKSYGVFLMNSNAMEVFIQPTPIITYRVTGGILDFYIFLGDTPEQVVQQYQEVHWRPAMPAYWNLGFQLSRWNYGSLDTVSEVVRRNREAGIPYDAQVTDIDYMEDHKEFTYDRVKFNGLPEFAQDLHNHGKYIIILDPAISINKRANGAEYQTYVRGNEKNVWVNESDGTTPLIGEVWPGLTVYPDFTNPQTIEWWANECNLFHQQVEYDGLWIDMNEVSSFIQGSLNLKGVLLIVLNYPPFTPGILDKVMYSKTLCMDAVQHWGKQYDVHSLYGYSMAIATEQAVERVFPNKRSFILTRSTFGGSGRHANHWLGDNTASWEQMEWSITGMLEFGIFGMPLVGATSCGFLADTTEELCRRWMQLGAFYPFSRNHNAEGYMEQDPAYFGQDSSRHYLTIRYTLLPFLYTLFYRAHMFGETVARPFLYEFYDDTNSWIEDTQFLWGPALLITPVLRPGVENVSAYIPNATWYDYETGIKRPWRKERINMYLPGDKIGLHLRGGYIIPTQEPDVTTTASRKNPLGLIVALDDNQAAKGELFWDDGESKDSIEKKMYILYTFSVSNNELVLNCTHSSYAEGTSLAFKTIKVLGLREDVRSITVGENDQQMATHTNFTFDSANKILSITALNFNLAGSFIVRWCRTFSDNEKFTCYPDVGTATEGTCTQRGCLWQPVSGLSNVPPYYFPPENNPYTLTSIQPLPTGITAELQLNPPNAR
Endpoint: pIC50
For clarity, pIC50 is expressed as the negative log10 of concentration in mol/L.

Noted for `OC[C@@H]1[C@@H](O)[C@H](O)[C@@H](O)CN1CCCCCOCC12CC3CC(CC(C3)C1)C2` : its pIC50 reads 5.35

Source of measurements: paper PMC4298701
